- System: MS2 coat protein
- assay-explanation: apparent KD of MS2 coat protein; designed switch direction (-1 OFF switch, 1 ON switch): 1; higher = weaker reporter binding
- test-settings: input ligand: none
Note: every record was labeled by where its apparent KD of MS2 coat protein sits among bottom range = under 80 nM, center range = from 80 nM up to 200 nM, top range = 200 nM and over

{"residues": "UGGUACAUGGGAGGAUAUGGGCAAGGGACAUGAGGAUCACCCAUGUAUUAAAUGCCGAGAGGCAUCUAGAAGGCCCAUGUACCU [JL SSNG1 3.88] (Eterna round: R96, puzzle: Same State NG 2)", "target-entity": "MS2 coat protein", "cat": "center range"}

Then there is this sequence:
stdin: Category lookup for the sequence UGACACACGGCAGGAUAUGCUUAGCAAAGCUAAGCAGAAGGGCCUCAUGUCGUGGAAAUGUGACAUGAGGAUCACCCAUGUCGC [Omei SS(NG)1 Cv5] (Eterna round: R96, puzzle: Same State NG 1)
stdout: bottom range

* * *

- Test system: MS2 coat protein
- assay-explanation: apparent KD of MS2 coat protein; designed switch direction (-1 OFF switch, 1 ON switch): 1; higher = weaker reporter binding
- test-settings: input ligand: none
// label = true (1) if apparent KD of MS2 coat protein is not less than 100 nM, otherwise false (0)

Study these solved cases before continuing.
{"residues": "ACUCUCACAGUAGGAUAUGUAGGAUAUGCCUACAUGAGGAUCACCCAUGUAAACAUGGCAGAAGGACAGAAGGACUUACAUUGG [pwkr ssNG2 2FMN + 1F5.2] (Eterna round: R96, puzzle: Same State NG 2)", "cat": "true (1)"}
{"residues": "UGGUACAUGGGAGGAUAUGGGCAUGAGACAUGAGGAUCACCCAUGUUAUAAAAGCCGAGAGGCAUCUAGAAGGCCCAUGUACCU [JL SSNG1 3.91] (Eterna round: R96, puzzle: Same State NG 2)", "cat": "true (1)"}
{"residues": "UAGGGACAUGAGGAUCACCCAUGUGCCUCAUAUGGAGAAACACAGGAUAUGCUGAGGGAAACAUGGCAGAAGGGUGAAGAGAGG [Default title] (Eterna round: R96, puzzle: Same State NG 3)", "cat": "false (0)"}
{"residues": "AGGCUCAGACGAGGAUAUGAUCAUGGCGCUUCGGCGCAUACAUGAGGAUCACCCAUGUAAAGUGAUCAGAAGGUGUCUGAGCCA [SSNG2/7-B1] (Eterna round: R96, puzzle: Same State NG 2)", "cat": "false (0)"}
{"residues": "GAGGGCGAAAGCGACAUGAGGAUCACCCAUGUCCUCGGAGGGCAGGAUAUCCGGCAAAAGCCGAAGGAGAAGGGUCGAAAAGAA [AK SSNG3-V2-38.1] (Eterna round: R96, puzzle: Same State NG 3)", "cat": "false (0)"}
{"residues": "GUGCUCGUGUGAGGAUAUGUUGCCGGGUCGGCUGCAGAAGGUACUAUUAUACAUGAGGAUCACCCAUGUCGCUUUUCUCCGGUA [salish99_SSNG1_r04_921] (Eterna round: R96, puzzle: Same State NG 1)", "cat": "false (0)"}
{"residues": "CCCUUCGGCACAUGAGGAUCACCCAUGUUUUAGUUGAAGAGGUAGGAUAUGGCUGGGAGCGGAAGCCAGAAGGACCAAGUGAGU [Lareonge] (Eterna round: R96, puzzle: Same State NG 3)", "cat": "false (0)"}
{"residues": "GGAGCCGGCCUAGGAUAUUUCAUUAAAUAACAUGAGGAUCACCCAUGUAGGCCAGAAGGCCUUGGGAAGAAGGAGGUCGGCUCC [Loop Effect - U24,U28] (Eterna round: R96, puzzle: Same State NG 2)", "cat": "false (0)"}

Lab note: next sequence to report on.
stdin: Given GCCGCAAGGGCAGGAUAUGGGUCCAGAGUGCAAAUACACUCUGGUACAUGAGGAUCACCCAUGUCCCAGAAGGGCCCAAGCGGC [Teerledion] (Eterna round: R96, puzzle: Same State NG 2) , state whether its apparent KD of MS2 coat protein is at least 100 nM.
stdout: true (1)

* * *

The entries below are paired with their reported apparent KD of MS2 coat protein.
- Tested on: MS2 coat protein
- assay-explanation: apparent KD of MS2 coat protein; higher = weaker reporter binding
- test-settings: Eterna round: R107; input ligand: arginine 13.2 mM
Numeric answer only, unit nM assumed.

Would you please look over these solved cases?
{"residues": "GGCACAUAGUCGGCCGCCACUAGAAUAUAGUGGAAUAACAUGAGGAUCACCCAUGUAUUUGGGACUAGGACCGGGACUAUGUGCC [Bear]", "apparent KD of MS2 coat protein, nM": 33.2}
{"residues": "CUUCUGAAAGCAAUGGGAUCUGUUAUUGAUACCAGCAUCUGAUUUUGCCCUUGGCAGCAAGAAACAUGAGGAUCACCCAUGUGGC [theeternabot_exclusion_MS2_Theo_A_19]", "apparent KD of MS2 coat protein, nM": 21.4}
{"residues": "ACGACAUGAGGAUCACCCAUGUACUCUGAAGGAGCGUCGAUUACGACAGGUAGGUCGCAGGCUAAGGAUGGUGAUGCUCAAGACG [Exclusion Arginine A GF8]", "apparent KD of MS2 coat protein, nM": 53.5}
{"residues": "UCGCUCUGGGUGAAUCCCAGAGAUGUGGAAGGAGCGGACGAAAGUCCAGGUAGGUCGCCAUCGAACAUGAGGAUCACCCAUGUAC [Same State - Arginine A (Freestyle 26)]", "apparent KD of MS2 coat protein, nM": 42.7}

Then there is this sequence:
stdin: Can you share its apparent KD of MS2 coat protein? I mean this sequence: AAUCGUAAGGCGGCCGCCACUACACAUGAGGAUCACCCAUGUCUCGCGGGCUUGCGUUGGGAUAGUAGGACCGGGCCAGUAAUAA [Exclusion - Tryptophan B (Freestyle 13)]
stdout: 17.1

* * *

- Test system: MS2 coat protein
- assay-explanation: apparent KD of MS2 coat protein, switch ON state; designed switch direction (-1 OFF switch, 1 ON switch): -1; higher = weaker reporter binding
- test-settings: FMN input: 0 or 200 uM; Eterna round: R93 (includes R88 designs)
Quick rule for you: apparent KD of MS2 coat protein at 40 nM or higher means Fulfilled, lower means Not fulfilled.

{"residues": "AAAAAACAUGAGGAUCACCCAUGUGAGGAUAUGCAAAACCCAUAUAAAAAGGGAAAAAGCAGAAGGCGCAAAAA [Starry Exclusion 1.4 (wbt round 1 mod)]", "cat": "Not fulfilled"}

stdin: Hello, I need to know if CUCUAGUCAGGAUAUCCAAGAAAAGAAGAGAAAGAAAAGAAGGAGAAGGGACAUGAGGAUCACCCAUGUAAGAA [EteRNA is fun!] has measured apparent KD of MS2 coat protein not below 40 nM. Thanks!
stdout: Fulfilled

stdin: Confirm if apparent KD of MS2 coat protein reported for the sequence AAGACUACAGGAUAUACAUGAGGAUCACCCAUGUAACUGACGGAUAGAUGACGGAGAAGUAGAAGGGUAGUCAA [Ruby 38] is 40 nM or above.
stdout: Not fulfilled

stdin: Dear colleague, could you confirm whether AAAAAACAUGAGGAUCACCCAUGUGAGGAUAUGGAAAAAUAAGGACAGUAAAGAUAAACCAGAAGGCACAAAUA [JR_Exc001_Sub1101] has apparent KD of MS2 coat protein at or above 40 nM?
stdout: Not fulfilled

stdin: Check the entry AAAAAACAUGAGGAUCACCCAUGUCAGGAUAUGCUCAGCAAAAAAAAAAAAAAGAACGGUAGAAGGGACAGAAA [Bilbo Confounded 22 - Jieux - Exclusion 1] : does apparent KD of MS2 coat protein equal or exceed 40 nM?
stdout: Fulfilled

stdin: Test whether the sequence AAAUUGUCAGGAUAUCGUAUAACUGGGAAAACCAGGAGAUACGAGAAGGGACAUGAGGAUCACCCAUGUAAAAC [May 94] records apparent KD of MS2 coat protein of 40 nM or higher.
stdout: Fulfilled

stdin: Is reported apparent KD of MS2 coat protein greater than or equal to 40 nM here: UAAAACCUAGGAUAUACAUGAGGAUCACCCAUGUGGCACUCCGCAGGCAUUGUUCCCAGUAGAAGGAGGACACG [Inan]
stdout: Not fulfilled

stdin: Threshold query (apparent KD of MS2 coat protein >= 40 nM) on AAGUCGUUAGGAUAUAUAUGGAUAUACAUUUAUGUAGAACUACAUGAGGAUCACCCAUGUAGAAGGAACGAAUA [AJ 56]
stdout: Not fulfilled

* * *

- System: K4 kissing-loop RNA reporter;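 further: bound reporter read as fluorescence of individual clusters on recovered sequencing chips by microscopy, with normalized cluster intensities fitted with a binding model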
- assay-explanation: apparent KD of K4 kissing-loop reporter; higher = weaker reporter binding
- test-settings: Eterna round: R107; input ligand: tryptophan 2.4 mM
property-measured: apparent KD of K4 kissing-loop reporter (nM)
// units = nM; emit number, no label

stdin: Need apparent KD of K4 kissing-loop reporter, item CGCGCCCAGCCGGAUACCAGUGACCCGCUGGGAACCGCGGGCCCAGAGUGAUGUUCGGGACACCCUUGGCAGCCGCCUGGGCGAC [#2 Same State - Theophylline B Attempt #8 (HarryS)]
stdout: 509

stdin: Requested field: apparent KD of K4 kissing-loop reporter. Item: UGCGCUGUGUCCUAAAAUGUCCUCCGGGAUACCAGAGUCUUUUUAUUCCCUUGGCAGCUUGAGUGAUGUUUGAUGCCGUUCUUGU [xxbxymullin]
stdout: 607

stdin: Can you share its apparent KD of K4 kissing-loop reporter? I mean this sequence: UACGCCACAGACGUGGAGUACCUUGGGUCGAAGGAUAUCAGCAUUGUGAGAAGGUCGCCGAUUCUAAGUGAUGUUUAGAUCAGGG [theeternabot_sameState_KL_FMN_A_2]
stdout: 409

stdin: # get_value(readout='apparent KD of K4 kissing-loop reporter', item= AUUCCCACUUAAGGAUAUCAAGGAGUGAUGUUCCAAAUGGUCCACGUCGCGGCUCUCCGGGCACAAUGAGAAGGUAAAGCUGGGU [theeternabot_exclusion_KL_FMN_B_43] )
stdout: 210

stdin: Reported apparent KD of K4 kissing-loop reporter for GCGCGUCAUGUCAGCGGUGACACUGUCGAUACCAGCGCCGGAAGGCGCCCUUGGCAGCGACGUGCUGGAGUGAUGUUCCAGCGUC [#2 Exclusion - Theophylline A Attempt #21 (HarryS)] : what is it?
stdout: 134
